biological target: yeast α-glucosidase (Saccharomyces cerevisiae, UniProt P53341); construct: purchased Sigma Aldrich; test: kinetic study of α-glucosidase inhibition (Lineweaver–Burk plots); format: biochemical
Sequence (P53341 whole entry): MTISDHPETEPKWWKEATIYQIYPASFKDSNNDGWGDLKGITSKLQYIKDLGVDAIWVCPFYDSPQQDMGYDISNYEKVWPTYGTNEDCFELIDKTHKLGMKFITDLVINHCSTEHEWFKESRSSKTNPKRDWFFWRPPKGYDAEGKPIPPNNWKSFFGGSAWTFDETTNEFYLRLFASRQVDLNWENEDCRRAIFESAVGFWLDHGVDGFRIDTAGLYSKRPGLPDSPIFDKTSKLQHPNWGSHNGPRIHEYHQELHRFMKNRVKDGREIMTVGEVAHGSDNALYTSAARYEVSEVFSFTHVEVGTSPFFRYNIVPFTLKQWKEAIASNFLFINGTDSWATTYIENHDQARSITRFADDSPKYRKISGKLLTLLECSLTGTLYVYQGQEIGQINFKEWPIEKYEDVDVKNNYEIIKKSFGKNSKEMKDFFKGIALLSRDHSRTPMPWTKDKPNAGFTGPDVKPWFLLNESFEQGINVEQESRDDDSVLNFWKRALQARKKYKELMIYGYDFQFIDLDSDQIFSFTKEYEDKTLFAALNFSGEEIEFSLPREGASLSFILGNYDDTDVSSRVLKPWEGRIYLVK
VALUE KIND: pKi
Give bare numbers, as −log10 of the molar value.

Exercise: Report measured pKi; entry is COc1ccc2cc3[n+](cc2c1OC(=O)c1cc(C(C)(C)C)cc(C(C)(C)C)c1)CCc1cc2c(cc1-3)OCO2.[Cl-]
Solution: 4.97

----------
Molecular target: yeast α-glucosidase (Saccharomyces cerevisiae, UniProt P53341)
Construct: purchased Sigma Aldrich
Test: biochemical
Details: read-out: IC50
Protocol: Berberrubine derivatives will be assayed for yeast α-glucosidase inhibitory activity. The protocol described by Ramadhan et al. will be used[37]. Briefly, yeast α-glucosidase (0.1 U/mL) and substrate (1 mM p-nitrophenyl-α-D-glucopyranoside) were dissolved in 0.1 M phosphate buffer (pH 6.9). […] The percentage inhibition of activity was calculated as follows: % Inhibition = [(A0 − A1)/A0] × 100, where: A0 is the absorbance without the sample; A1 is the absorbance with the sample. […]
Please go through the items and note down their IC50.
Numbers only, in µM.

Consider the worked cases shown below.
Exercise: Return IC50 for the following compound: COc1ccc2cc3[n+](cc2c1OC(=O)c1cccc2ccccc12)CCc1cc2c(cc1-3)OCO2 [Compound 27]
Solution: 2.67

Exercise: Output IC50 of COc1ccc2cc3[n+](cc2c1OC(=O)c1ccccc1I)CCc1cc2c(cc1-3)OCO2 [Compound 17]
Solution: 9.24

Exercise: Supply recorded IC50 for COc1ccc2cc3[n+](cc2c1OC(=O)c1ccccc1Br)CCc1cc2c(cc1-3)OCO2 [Compound 16] here.
Solution: 6.45

Exercise: Return IC50 (reported value) for this compound: COc1ccc2cc3[n+](cc2c1OC(=O)C(c1ccccc1)c1ccccc1)CCc1cc2c(cc1-3)OCO2 [Compound 35]
Solution: 6.19

Exercise: # return recorded IC50 for input COc1ccc2cc3[n+](cc2c1OC(=O)c1ccccc1OCc1ccccc1)CCc1cc2c(cc1-3)OCO2.[Cl-] [Compound 9]
Solution: 2.29

Provide reported IC50 for each item, in the same order as listed.
1. COc1ccc2cc3[n+](cc2c1OC(=O)c1ccc2c(c1)OCO2)CCc1cc2c(cc1-3)OCO2 [Compound 7]
2. COc1ccc2cc3[n+](cc2c1OC(=O)c1cccc(Cl)c1)CCc1cc2c(cc1-3)OCO2 [Compound 11]
3. COc1ccc2cc3[n+](cc2c1OC(=O)/C=C/c1ccc2c(c1)OCO2)CCc1cc2c(cc1-3)OCO2 [Compound 31]
4. COc1ccc2cc3[n+](cc2c1OC(=O)/C=C/C=C/c1ccc2c(c1)OCO2)CCc1cc2c(cc1-3)OCO2.[Cl-] [Compound 33]

Solution:
1: 6.44; 2: 9.43; 3: 4.64; 4: 1.95

Required: IC50, one value per compound below.
1. COc1ccc2cc3[n+](cc2c1OC(=O)c1cccc(O)c1)CCc1cc2c(cc1-3)OCO2 [Compound 5]
2. COc1ccc2cc3[n+](cc2c1OC(=O)Cc1c(Cl)cccc1Cl)CCc1cc2c(cc1-3)OCO2 [Compound 34]
3. COc1ccc2cc3[n+](cc2c1OC(=O)c1ccc2ccccc2c1)CCc1cc2c(cc1-3)OCO2.[Cl-] [Compound 28]

Solution:
1: 7.51; 2: 7.3; 3: 2.63

----------
molecular target: yeast α-glucosidase (Saccharomyces cerevisiae); construct: purchased Sigma Aldrich; experiment: kinetic study of α-glucosidase inhibition (Lineweaver–Burk plots); assay type: biochemical; details: secondary plots of slope versus [I]; read-out: inhibition constants (Ki)
VALUE KIND: Ki (µM)
Numbers only, in µM.

Exercise: Report measured Ki; entry is COc1ccc2cc3[n+](cc2c1OC(=O)c1ccc2ccccc2c1)CCc1cc2c(cc1-3)OCO2.[Cl-]
Solution: 25.3

----------
target: yeast α-glucosidase (Saccharomyces cerevisiae); construct: purchased Sigma Aldrich; assay: biochemical; conditions: read-out: Inhibition at 50 μM (%), 50 μM
VALUE KIND: inhibition at 50 µM (%)
Answers are plain numbers, in %.

Exercise: Please indicate inhibition at 50 µM recorded for COc1ccc2cc3[n+](cc2c1OC(=O)c1ccc(F)cc1)CCc1cc2c(cc1-3)OCO2
Solution: 73.9

Please supply inhibition at 50 µM for each of the following items, keeping them in order.
1. COc1ccc2cc3[n+](cc2c1OC(=O)c1ccccc1C)CCc1cc2c(cc1-3)OCO2
2. CCc1ccc(C(=O)Oc2c(OC)ccc3cc4[n+](cc23)CCc2cc3c(cc2-4)OCO3)cc1

Solution:
90.6
81

Please give inhibition at 50 µM for each item listed below.
1. COc1ccc2cc3[n+](cc2c1OC(=O)c1cc(C(C)(C)C)cc(C(C)(C)C)c1)CCc1cc2c(cc1-3)OCO2.[Cl-]
2. COc1ccc(C(=O)Oc2c(OC)ccc3cc4[n+](cc23)CCc2cc3c(cc2-4)OCO3)cc1
3. COc1ccc2cc3[n+](cc2c1OC(=O)c1ccc(Cl)cc1)CCc1cc2c(cc1-3)OCO2
4. COc1ccc2cc3[n+](cc2c1OC(=O)C(c1ccccc1)c1ccccc1)CCc1cc2c(cc1-3)OCO2

Solution:
1. 99.8
2. 80
3. 96.5
4. 95.2

----------
I'd appreciate it if you could supply IC50 values for the items below.
target: yeast α-glucosidase (Saccharomyces cerevisiae); construct: purchased Sigma Aldrich; experiment: biochemical
One number for each entry, in µM.

Take a look at these entries with their results.
Exercise: For COc1ccc2cc3[n+](cc2c1OC(=O)c1ccc(F)cc1)CCc1cc2c(cc1-3)OCO2 , write its IC50.
Solution: 21.3

Exercise: Note down IC50 recorded for COc1ccc2cc3[n+](cc2c1OC(=O)/C=C/c1c(Cl)cccc1Cl)CCc1cc2c(cc1-3)OCO2
Solution: 16

Exercise: Return value of IC50 for input COc1ccc2cc3[n+](cc2c1OC(=O)c1ccc(Cl)cc1)CCc1cc2c(cc1-3)OCO2 , no commentary.
Solution: 10.6

Exercise: Give the value of IC50 reported for the following: COc1ccc2cc3[n+](cc2c1OC(=O)C=Cc1ccccc1)CCc1cc2c(cc1-3)OCO2.[Cl-]
Solution: 15.1

Look at each compound and report its IC50.
1. COc1ccc(C(=O)Oc2c(OC)ccc3cc4[n+](cc23)CCc2cc3c(cc2-4)OCO3)cc1
2. COc1ccc(C(=O)Oc2c(OC)ccc3cc4[n+](cc23)CCc2cc3c(cc2-4)OCO3)cc1OC
3. COc1ccc2cc3[n+](cc2c1OC(=O)/C(C)=C/c1ccccc1)CCc1cc2c(cc1-3)OCO2

Solution:
1: 18.4; 2: 19.1; 3: 10.3

----------
target: yeast α-glucosidase (Saccharomyces cerevisiae, UniProt P53341); construct: purchased Sigma Aldrich; assay: biochemical; settings: read-out: Inhibition at 50 μM (%), 50 μM
VALUE KIND: inhibition at 50 µM (%)
Answers are plain numbers, in %.

Exercise: Provide inhibition at 50 µM, tested on yeast α-glucosidase (Saccharomyces cerevisiae, UniProt P53341), for COc1ccc2cc3[n+](cc2c1OC(=O)c1ccc2c(c1)OCO2)CCc1cc2c(cc1-3)OCO2 [Compound 7] .
Solution: 99.7

Exercise: # return inhibition at 50 µM for COc1ccc2cc3[n+](cc2c1OC(=O)c1cccc(O)c1)CCc1cc2c(cc1-3)OCO2 [Compound 5] , test system: yeast α-glucosidase (Saccharomyces cerevisiae, UniProt P53341)
Solution: 98.1

Exercise: Provide the reported inhibition at 50 µM (system: yeast α-glucosidase (Saccharomyces cerevisiae, UniProt P53341)) for COc1ccc2cc3[n+](cc2c1OC(=O)/C=C/c1ccc2c(c1)OCO2)CCc1cc2c(cc1-3)OCO2 [Compound 31]
Solution: 98.9

Exercise: GET inhibition at 50 µM | system: yeast α-glucosidase (Saccharomyces cerevisiae, UniProt P53341) | item: COc1ccc2cc3[n+](cc2c1OC(=O)/C(C)=C/c1ccccc1)CCc1cc2c(cc1-3)OCO2 [Compound 30]
Solution: 91.9

Exercise: Tell me inhibition at 50 µM of COc1ccc2cc3[n+](cc2c1OC(=O)c1ccc(C)cc1)CCc1cc2c(cc1-3)OCO2 [Compound 23] when tested on yeast α-glucosidase (Saccharomyces cerevisiae, UniProt P53341).
Solution: 78.9

List reported inhibition at 50 µM for each of these compounds:
1. COc1ccc2cc3[n+](cc2c1OC(=O)Cc1c(Cl)cccc1Cl)CCc1cc2c(cc1-3)OCO2 [Compound 34]
2. COc1ccc2cc3[n+](cc2c1OC(=O)c1ccc(C#N)cc1)CCc1cc2c(cc1-3)OCO2 [Compound 20]

Solution:
93.9
55.6

----------
Record form. Attribute: inhibition at 50 µM. Fill in for each entry.
target: yeast α-glucosidase (Saccharomyces cerevisiae); construct: purchased Sigma Aldrich; test: biochemical; conditions: read-out: Inhibition at 50 μM (%), 50 μM
Give bare numbers, in %.

Check out these entries, answers already filled in.
Exercise: For the compound COc1ccc2cc3[n+](cc2c1OC(=O)c1ccccc1I)CCc1cc2c(cc1-3)OCO2 [Compound 17] , give its measured inhibition at 50 µM value.
Solution: 94.9

Exercise: Read off the recorded inhibition at 50 µM for COc1cccc(C(=O)Oc2c(OC)ccc3cc4[n+](cc23)CCc2cc3c(cc2-4)OCO3)c1 [Compound 3]
Solution: 89.7

Exercise: For the compound COc1ccccc1C(=O)Oc1c(OC)ccc2cc3[n+](cc12)CCc1cc2c(cc1-3)OCO2 [Compound 2] , give its measured inhibition at 50 µM value.
Solution: 79.1

Exercise: # return recorded inhibition at 50 µM for entry COc1ccc2cc3[n+](cc2c1OC(=O)c1ccccc1OCc1ccccc1)CCc1cc2c(cc1-3)OCO2.[Cl-] [Compound 9]
Solution: 100

# map each compound to its inhibition at 50 µM
1. COc1ccc2cc3[n+](cc2c1OC(=O)/C=C/c1c(Cl)cccc1Cl)CCc1cc2c(cc1-3)OCO2 [Compound 32]
2. COc1ccc2cc3[n+](cc2c1OC(=O)c1ccccc1F)CCc1cc2c(cc1-3)OCO2 [Compound 13]
3. COc1ccc2cc3[n+](cc2c1OC(=O)c1ccccc1)CCc1cc2c(cc1-3)OCO2.[Cl-] [Compound 1]
4. COc1ccc2cc3[n+](cc2c1OC(=O)C=Cc1ccccc1)CCc1cc2c(cc1-3)OCO2.[Cl-] [Compound 29]
5. COc1ccc2cc3[n+](cc2c1OC(=O)c1ccccc1[N+](=O)[O-])CCc1cc2c(cc1-3)OCO2 [Compound 19]
6. COc1ccc2cc3[n+](cc2c1OC(=O)c1ccccc1C(F)(F)F)CCc1cc2c(cc1-3)OCO2 [Compound 18]

Solution:
[94.8, 72, 58, 88.5, 81.6, 86.1]

Numbers sourced from paper PMC10620162.
